FYI, the data here is from patent US8623869B2.

What Ki was measured for each of the following?
- EXPERIMENTAL TARGET: full-length ATR (Homo sapiens)
- Construct: Assays were carried out at 25° C. in the presence of 5 nM full-length ATR
- Sequence (Q13535 whole entry): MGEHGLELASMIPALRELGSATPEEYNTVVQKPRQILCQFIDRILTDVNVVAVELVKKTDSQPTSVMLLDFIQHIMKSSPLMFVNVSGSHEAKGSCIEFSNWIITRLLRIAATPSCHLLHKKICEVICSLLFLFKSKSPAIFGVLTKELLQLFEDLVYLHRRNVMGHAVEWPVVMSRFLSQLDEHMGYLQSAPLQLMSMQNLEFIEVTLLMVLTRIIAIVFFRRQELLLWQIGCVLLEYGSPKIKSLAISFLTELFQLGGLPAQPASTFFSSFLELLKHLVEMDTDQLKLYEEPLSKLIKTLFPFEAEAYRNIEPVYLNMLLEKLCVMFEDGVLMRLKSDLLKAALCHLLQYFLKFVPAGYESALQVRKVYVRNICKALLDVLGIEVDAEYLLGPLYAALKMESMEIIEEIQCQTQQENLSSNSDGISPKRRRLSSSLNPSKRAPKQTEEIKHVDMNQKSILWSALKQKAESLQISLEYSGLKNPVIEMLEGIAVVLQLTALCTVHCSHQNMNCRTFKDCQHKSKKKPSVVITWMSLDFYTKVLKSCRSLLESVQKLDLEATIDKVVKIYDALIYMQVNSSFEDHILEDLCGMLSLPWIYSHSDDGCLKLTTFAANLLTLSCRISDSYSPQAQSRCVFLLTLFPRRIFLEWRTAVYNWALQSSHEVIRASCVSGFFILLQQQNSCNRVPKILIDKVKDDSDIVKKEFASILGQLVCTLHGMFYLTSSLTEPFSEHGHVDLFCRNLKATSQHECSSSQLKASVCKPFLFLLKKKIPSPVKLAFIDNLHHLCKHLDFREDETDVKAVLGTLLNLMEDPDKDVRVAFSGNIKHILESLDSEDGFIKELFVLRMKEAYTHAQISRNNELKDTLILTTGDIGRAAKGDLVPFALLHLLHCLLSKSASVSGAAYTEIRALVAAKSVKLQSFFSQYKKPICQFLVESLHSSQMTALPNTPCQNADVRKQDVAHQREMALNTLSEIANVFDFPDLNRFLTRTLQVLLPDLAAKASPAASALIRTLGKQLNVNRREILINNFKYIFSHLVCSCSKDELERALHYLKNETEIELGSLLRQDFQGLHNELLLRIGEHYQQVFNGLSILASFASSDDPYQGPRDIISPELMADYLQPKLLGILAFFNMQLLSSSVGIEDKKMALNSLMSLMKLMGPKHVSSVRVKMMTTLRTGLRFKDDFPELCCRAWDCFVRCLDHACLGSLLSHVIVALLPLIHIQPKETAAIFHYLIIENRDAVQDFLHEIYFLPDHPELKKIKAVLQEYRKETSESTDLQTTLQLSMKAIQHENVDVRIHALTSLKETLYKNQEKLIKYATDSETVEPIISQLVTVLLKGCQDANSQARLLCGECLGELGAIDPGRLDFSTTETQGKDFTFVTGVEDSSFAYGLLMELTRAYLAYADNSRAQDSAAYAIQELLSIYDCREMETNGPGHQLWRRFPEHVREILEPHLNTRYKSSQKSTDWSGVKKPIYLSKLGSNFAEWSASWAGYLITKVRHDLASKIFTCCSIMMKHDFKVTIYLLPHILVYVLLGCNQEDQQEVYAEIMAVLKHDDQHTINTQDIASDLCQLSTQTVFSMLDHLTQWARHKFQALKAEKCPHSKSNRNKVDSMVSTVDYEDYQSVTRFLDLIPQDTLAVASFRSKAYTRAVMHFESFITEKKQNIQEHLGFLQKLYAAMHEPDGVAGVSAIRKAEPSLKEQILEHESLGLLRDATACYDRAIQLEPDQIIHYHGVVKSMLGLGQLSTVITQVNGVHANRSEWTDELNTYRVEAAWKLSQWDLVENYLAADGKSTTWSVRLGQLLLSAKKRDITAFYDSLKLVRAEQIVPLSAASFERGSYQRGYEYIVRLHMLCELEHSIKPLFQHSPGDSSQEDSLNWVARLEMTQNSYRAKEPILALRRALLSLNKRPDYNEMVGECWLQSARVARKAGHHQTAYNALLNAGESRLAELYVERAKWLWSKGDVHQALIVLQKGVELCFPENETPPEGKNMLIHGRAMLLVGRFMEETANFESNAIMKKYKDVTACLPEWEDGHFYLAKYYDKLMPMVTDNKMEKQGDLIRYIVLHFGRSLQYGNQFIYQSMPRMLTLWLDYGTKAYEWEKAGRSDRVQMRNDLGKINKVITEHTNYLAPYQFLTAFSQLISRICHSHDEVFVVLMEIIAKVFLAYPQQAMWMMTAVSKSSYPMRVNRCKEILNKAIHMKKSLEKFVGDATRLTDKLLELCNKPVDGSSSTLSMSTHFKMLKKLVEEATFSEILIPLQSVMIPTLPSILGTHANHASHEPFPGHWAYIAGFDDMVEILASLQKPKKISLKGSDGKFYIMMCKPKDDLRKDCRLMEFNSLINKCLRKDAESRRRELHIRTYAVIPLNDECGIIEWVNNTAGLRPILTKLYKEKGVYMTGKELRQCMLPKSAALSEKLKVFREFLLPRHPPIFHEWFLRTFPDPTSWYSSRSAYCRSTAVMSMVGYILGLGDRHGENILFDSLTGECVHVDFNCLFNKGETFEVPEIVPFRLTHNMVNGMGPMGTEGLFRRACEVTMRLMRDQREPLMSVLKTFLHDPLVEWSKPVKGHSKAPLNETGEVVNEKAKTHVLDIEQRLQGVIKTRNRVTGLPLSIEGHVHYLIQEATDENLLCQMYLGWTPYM
- EXPERIMENT NOTES: ATR Inhibition Assay (radioactive-phosphate incorporation)
- REPORTED CONDITIONS: Ki(app); 5 nM full-length ATR, 10 μM ATP, 800 μM target peptide, 25° C.

Recorded Ki for CC(C)S(=O)(=O)c1ccc(-c2cnc3[nH]cc(-c4cnn(C)c4)c3n2)cc1 with full-length ATR (Homo sapiens), please?
> 50 nM

Lab note: need Ki with full-length ATR (Homo sapiens) for entry CC(C)S(=O)(=O)c1ccc(-c2cnc3[nH]cc(-c4cnc(N)nc4)c3n2)cc1 , please look it up.
≤ 10 nM

Give full-length ATR (Homo sapiens) Ki for CC(N)c1cccc(-c2cc(-c3c[nH]c4ncc(-c5ccc(S(=O)(=O)C(C)C)cc5)nc34)on2)c1 (stereo not shown)
≤ 10 nM

Hello, I am looking for reported Ki with full-length ATR (Homo sapiens) for CC(C)S(=O)(=O)c1ccc(-c2cnc3[nH]cc(-c4cc5ccccc5s4)c3n2)cc1 . Could you help?
10 to 50 nM
